Origin of values: patent US8450317B2

target: CXCR3 (Macaca fascicularis); test: functional cellular assay measuring calcium flux in CXCR3 transfected cells (block of CXCR3/IP-10 interaction); format: cell-based, Cyno; conditions: IP-10 induced intracellular calcium flux; Cyno-CHO cells stably expressing recombinant CXCR3 and G-alpha-16; IP-10 at EC80; read-out: IC50
Friendly reminder: IC50 below 10 nM is true, at or above is false.

> print(dat)
                                    molecule  class.assignment
 1  COc1ncc(-c2ccccc2N2CCN(C(=O)Cn3ccc4c(Cl)ncnc43)CC2)cn1             false
 2  Cc1cc(C(F)(F)F)nn1CC(=O)N1CCN(c2ccccc2-c2ccc(C#N)nc2)CC1             false
 3  Cc1cc(C)n(CC(=O)N2CCN(c3ccccc3-c3ccc(C#N)nc3)CC2)n1             false
 4  CS(=O)(=O)c1ncc(-c2ccccc2N2CCN(C(=O)Cn3ccc4cccnc43)CC2)cn1             false
 5  CC1CN(c2ccc(F)cc2-c2cnc(N3CCC(S(C)(=O)=O)CC3)nc2)CCN1C(=O)Cn1cnc2cccnc21 (stereo not drawn)             false
 6  O=C(Cn1ccc2cccnc21)N1CCN(c2ccc(F)cc2-c2cnc(N3CCC(O)CC3)nc2)CC1              true
 7  CC1CN(c2ccc(F)cc2-c2cnc(N3CCC(S(C)(=O)=O)CC3)nc2)CCN1C(=O)Cn1ccc2ccncc21 (stereo not drawn)              true
 8  CS(=O)(=O)c1ncc(-c2cc(C(F)(F)F)ccc2N2CCN(C(=O)Cn3ccc4cccnc43)CC2)cn1             false
 9  COc1cc(NC(=O)c2cc(F)ccc2N2CCN(C(=O)CN(C)C(=O)C(C)C)[C@H](C)C2)ccn1              true
10  CC1CN(C(=O)Cn2ccc3cccnc32)CCN1c1ccccc1-c1cnc(N2CCOCC2)nc1 (stereo not drawn)             false
11  COc1ncc(-c2cc(C#N)ccc2N2CCN(C(=O)Cn3nc(C)cc3C)CC2)cn1             false
12  Cc1ocnc1C(=O)N(C)CC(=O)N1CCN(c2ccc(F)cc2C(=O)Nc2nc3c(s2)CN(C)CC3)C[C@@H]1C             false
13  Cc1cc(C)n(CC(=O)N2CCN(c3ccccc3-c3cnc(Oc4ccccc4)nc3)CC2)n1             false
14  Cc1cc(C)n(CC(=O)N2CCN(c3ccc(Cl)cc3-c3cnc(N4CCOCC4)nc3)CC2)n1             false
15  CC1CN(c2ccc(C(F)(F)F)cc2-c2cnc(S(C)(=O)=O)nc2)CCN1C(=O)Cn1ccc2cccnc21 (stereo not drawn)             false
16  Cc1cc(C)n(CC(=O)N2CCN(c3ccc(C(F)(F)F)cc3-c3cnc(S(C)(=O)=O)nc3)CC2)n1             false
17  Cc1cc(C)n(CC(=O)N2CCN(c3ccccc3-c3cnc(N4CCC(O)C4)nc3)CC2)n1 (stereo not drawn)              true

---

molecular target: CXCR3 (Macaca fascicularis); assay: functional cellular assay measuring calcium flux in CXCR3 transfected cells (block of CXCR3/IP-10 interaction); format: cell-based, Cyno; settings: IP-10 induced intracellular calcium flux; Cyno-CHO cells stably expressing recombinant CXCR3 and G-alpha-16; IP-10 at EC80; read-out: IC50
pIC50: −log10 of the molar value.
Listed here are molecules together with their documented pIC50.
Recorded Endpoint: pIC50

> print(dat)
                                   molecule  readout.number
1  CC1CN(c2ccc(F)cc2-c2cnc(N3CCC(S(C)(=O)=O)CC3)nc2)CCN1C(=O)CN1Cc2ccccc2C1=O (centres unmarked)            8.00
2  CC1CN(c2ccc(C(F)(F)F)cc2-c2cnc(N3CCC(S(C)(=O)=O)CC3)nc2)CCN1C(=O)Cn1cnc2cccnc21 (centres unmarked)            8.15
3  CN1CCN(c2ncc(-c3cc(F)ccc3N3CCN(C(=O)Cn4cnc5cccnc54)CC3)cn2)CC1            7.37
4  CNc1ncc(-c2cc(Cl)ccc2N2CCN(C(=O)Cn3nc(C)cc3C)CC2)cn1            7.89
5  CC(C)C(=O)N(C)CC(=O)N1CCN(c2ccc(F)cc2C(=O)Nc2nc3c(s2)CN(C)CC3)C[C@H]1C            7.72
6  O=C(CN1CCCCC1=O)N1CCN(c2ccc(F)cc2-c2cnc(N3CCOCC3)nc2)CC1            7.52
7  O=C(CN1CCCCC1=O)N1CCN(c2ccc(F)cc2-c2cnc(N3CCC(O)CC3)nc2)CC1            7.80
8  Cc1cc(C)n(CC(=O)N2CCN(c3ccccc3-c3cnc(N4CCC(F)CC4)nc3)CC2)n1            8.00

---

target: CXCR3 (Macaca fascicularis, UniProt A0A2K5UV19); assay: functional cellular assay measuring calcium flux in CXCR3 transfected cells (block of CXCR3/IP-10 interaction); assay type: cell-based, Cyno; details: IP-10 induced intracellular calcium flux; Cyno-CHO cells stably expressing recombinant CXCR3 and G-alpha-16; IP-10 at EC80; read-out: IC50
Sequence (A0A2K5UV19 entry or part of it): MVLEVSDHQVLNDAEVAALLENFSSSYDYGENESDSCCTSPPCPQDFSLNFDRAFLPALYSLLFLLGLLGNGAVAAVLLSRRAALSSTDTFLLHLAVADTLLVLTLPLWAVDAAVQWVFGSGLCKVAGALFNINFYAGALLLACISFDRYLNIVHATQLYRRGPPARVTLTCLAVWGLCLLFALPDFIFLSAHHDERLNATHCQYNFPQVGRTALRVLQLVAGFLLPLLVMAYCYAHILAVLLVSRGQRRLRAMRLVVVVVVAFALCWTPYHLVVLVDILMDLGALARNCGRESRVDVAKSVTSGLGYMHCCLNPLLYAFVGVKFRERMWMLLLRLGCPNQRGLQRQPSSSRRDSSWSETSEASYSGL
pIC50: −log10 of the molar value.
Listed here are compounds together with their documented pIC50.
Recorded Endpoint: pIC50

> print(dat)
                                   compound                             system.tested  readout.number
1  O=C(CNc1nccs1)N1CCN(c2ccccc2-c2cnc(N3CCOCC3)nc2)CC1  CXCR3 (Macaca fascicularis, UniProt A0A2K5UV19)            7.46
2  Cc1cc(C)n(CC(=O)N2CCN(c3ccccc3-c3cnc(N(C)C)nc3)CC2)n1  CXCR3 (Macaca fascicularis, UniProt A0A2K5UV19)            8.15
3  CC1CN(c2ccccc2-c2cnc(N3CCC(S(C)(=O)=O)CC3)nc2)CCN1C(=O)CN1CCCCC1=O (centres unmarked)  CXCR3 (Macaca fascicularis, UniProt A0A2K5UV19)            7.47
4  O=C(Cn1ccc2ccncc21)N1CCN(c2ccc(F)cc2-c2cnc(N3CCOCC3)nc2)CC1  CXCR3 (Macaca fascicularis, UniProt A0A2K5UV19)            7.89
5  CC1CN(c2ccc(F)cc2-c2cnc(S(C)(=O)=O)nc2)CCN1C(=O)Cn1c(=O)[nH]c2ccccc21 (centres unmarked)  CXCR3 (Macaca fascicularis, UniProt A0A2K5UV19)            7.22

---

Listed here are molecules together with their documented pIC50.
molecular target: CXCR3 (Macaca fascicularis); experiment: functional cellular assay measuring calcium flux in CXCR3 transfected cells (block of CXCR3/IP-10 interaction); format: cell-based, Cyno; details: IP-10 induced intracellular calcium flux; Cyno-CHO cells stably expressing recombinant CXCR3 and G-alpha-16; IP-10 at EC80; read-out: IC50
pIC50: −log10 of the molar value.
Recorded Endpoint: pIC50

> print(dat)
                                    molecule  recorded.endpoint  readout.number
 1  CC1CN(c2ccc(F)cc2-c2cnc(N3CCC(S(C)(=O)=O)CC3)nc2)CCN1C(=O)CN1CCCCC1=O (stereo not drawn)              pIC50            7.85
 2  Cc1cc(C)n(CC(=O)N2CCN(c3ccccc3-c3cnc(N4CCCC(F)(F)C4)nc3)CC2)n1              pIC50            8.05
 3  COc1ncc(-c2cc(C(F)(F)F)ccc2N2CCN(C(=O)Cn3nc(C)cc3C)CC2)cn1              pIC50            8.10
 4  Cc1cc(C)n(CC(=O)N2CCN(c3ccccc3-c3cnc(C)nc3)CC2)n1              pIC50            7.17
 5  Cc1cc(C)n(CC(=O)N2CCN(c3ccccc3-c3cnc(N4CCCC(C(F)(F)F)C4)nc3)CC2)n1 (stereo not drawn)              pIC50            7.92
 6  Cc1cc(C)n(CC(=O)N2CCN(c3ccccc3-c3cnc(N4CCC(N(C)C)CC4)nc3)CC2)n1              pIC50            7.51
 7  CC1CN(c2ccc(C(F)(F)F)cc2-c2cnc(N3CCC(O)CC3)nc2)CCN1C(=O)CN1CCCCC1=O (stereo not drawn)              pIC50            7.96
 8  CC1CN(c2ccc(C(F)(F)F)cc2-c2cnc(N3CCC(S(C)(=O)=O)CC3)nc2)CCN1C(=O)Cn1ccc2ccncc21 (stereo not drawn)              pIC50            8.15
 9  COc1cc(NC(=O)c2cc(F)ccc2N2CCN(C(=O)CN3Cc4ccccc4C3=O)[C@H](C)C2)ccn1              pIC50            8.15
10  O=C(Cn1ccc2cccnc21)N1CCN(c2ccccc2-c2cnc(N3CCCCC3)nc2)CC1              pIC50            7.96
11  COc1ncc(-c2ccccc2N2CCN(C(=O)Cn3c(=O)n(C)c4ccccc43)CC2)cn1              pIC50            7.96
12  CCNc1ncc(-c2ccccc2N2CCN(C(=O)Cn3ccc4cccnc43)CC2)cn1              pIC50            8.05
13  CC1CN(c2ccc(C(F)(F)F)cc2-c2cnc(N3CCC(O)CC3)nc2)CCN1C(=O)Cn1cnc2cccnc21 (stereo not drawn)              pIC50            7.96
14  COc1cc(-c2ccccc2N2CCN(C(=O)Cn3ccc4cccnc43)CC2)ccn1              pIC50            7.62
15  O=C(Cn1cnc2cccnc21)N1CCN(c2ccc(F)cc2-c2cnc(N3CCCC3)nc2)CC1              pIC50            7.85
16  CC1CN(c2ccc(C(F)(F)F)cc2-c2cnc(N3CCC(O)CC3)nc2)CCN1C(=O)Cn1ccc2ccncc21 (stereo not drawn)              pIC50            8.15
17  COc1cc(NC(=O)c2cc(F)ccc2N2CCN(C(=O)CN(C)C(=O)c3ncoc3C)[C@H](C)C2)ccn1              pIC50            7.92
18  O=C(Cn1ccc2cccnc21)N1CCN(c2ccccc2-c2cnc(N3CCCC3)nc2)CC1              pIC50            8.05
